assay: self-splicing fitness, log relative to wild type (ln ratio); higher = more splicing; Tetrahymena group I intron in knt gene, E. coli kanamycin selection, DiMSum; sequences stand for … in CUCUCU…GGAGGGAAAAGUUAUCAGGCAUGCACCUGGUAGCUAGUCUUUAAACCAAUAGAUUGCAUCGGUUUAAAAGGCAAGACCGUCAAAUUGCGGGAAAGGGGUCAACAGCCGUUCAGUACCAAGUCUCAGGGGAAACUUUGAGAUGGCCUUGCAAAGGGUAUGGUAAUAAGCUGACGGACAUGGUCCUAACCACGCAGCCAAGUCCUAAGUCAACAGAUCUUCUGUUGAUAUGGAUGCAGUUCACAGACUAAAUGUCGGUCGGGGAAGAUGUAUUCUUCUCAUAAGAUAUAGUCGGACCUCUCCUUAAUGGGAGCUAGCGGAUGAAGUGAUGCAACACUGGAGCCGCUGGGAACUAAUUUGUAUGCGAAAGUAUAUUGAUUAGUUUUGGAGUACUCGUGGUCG; conditions: 30 °C;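 also: selection with 25 µg/mL kanamycin versus none on LB agar overnight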
Listing: self-splicing fitness (ln) of selected sequences

Seq	self-splicing fitness (ln)
AGCAAGCAAUAUUACGCAUC	-2.72
GCGUAGCAAUAUUACGGGGC	-3.47
GUACAGCAAUAUUACGAAAC	-1.74
AGACAGCAAUAUUACGGCUG	-2.93
AUGUAGCAAUAUUACGCAUU	-3.93
CAUGAGCAAUAUUACGAUUA	-3.08
GGUAAGCAAUAUUACGUACU	-1.82
GACAAGCAAUAUUACGAUCU	-0.884
CAAUAGCAAUAUUACGCGGC	-3.91
GCCAAGCAAUAUUACGUAUA	-2
ACAUAGCAAUAUUACGACGA	-0.942
GGUUAGCAAUAUUACGGUAA	-1.02
AAGAAGCAAUAUUACGAUAC	-2.94
CGCCAGCAAUAUUACGGACG	-4.63
CCUCAGCAAUAUUACGAUUG	-1.31
CCACAGCAAUAUUACGCGAA	-3.53
CGCAAGCAAUAUUACGAACA	-0.432
CGCAAGCAAUAUUACGGAAC	-3.07
UAUUAGCAAUAUUACGUGAG	-1.55
GCAAAGCAAUAUUACGAUUU	-0.938
AAAUAGCAAUAUUACGUCAA	-2.07
GGACAGCAAUAUUACGCGAA	-1.07
GUUUAGCAAUAUUACGUUUC	-2.17
UUGAAGCAAUAUUACGGCUU	-3.03
UUGAAGCAAUAUUACGCCGG	-0.0467
GCGAAGCAAUAUUACGGCAG	-1.93
GGGGAGCAAUAUUACGCGCA	-2.35
AGUAAGCAAUAUUACGGAGA	-3.47
GUAUAGCAAUAUUACGGGGA	-2.52
UAAUAGCAAUAUUACGGAAU	-2.77
GCGGAGCAAUAUUACGGUCA	-2.75
AAGCAGCAAUAUUACGUGAU	-2.39
CAUAAGCAAUAUUACGGGAG	-1.96
UCCCAGCAAUAUUACGCGUG	-3.49

====

The entries below come with measured self-splicing fitness (ln) values attached.
assay: self-splicing fitness, log relative to wild type (ln ratio); higher = more splicing; Tetrahymena group I intron in knt gene, E. coli kanamycin selection, DiMSum; sequences stand for … in CUCUCU…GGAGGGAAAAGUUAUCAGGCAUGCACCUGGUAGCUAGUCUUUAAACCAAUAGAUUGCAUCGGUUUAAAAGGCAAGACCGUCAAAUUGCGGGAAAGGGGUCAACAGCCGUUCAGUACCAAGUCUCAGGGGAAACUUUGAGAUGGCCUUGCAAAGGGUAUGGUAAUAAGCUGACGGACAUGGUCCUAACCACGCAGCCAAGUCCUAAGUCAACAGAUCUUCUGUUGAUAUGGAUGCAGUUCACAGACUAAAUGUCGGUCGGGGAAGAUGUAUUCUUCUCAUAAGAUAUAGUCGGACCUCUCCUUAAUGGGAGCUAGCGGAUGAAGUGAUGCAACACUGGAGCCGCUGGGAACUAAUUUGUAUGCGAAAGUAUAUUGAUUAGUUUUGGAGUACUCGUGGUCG; settings: 37 °C
Reported Metric: self-splicing fitness (ln)

Seq	Reported Result
CAAGAGCAAUAUUACGUUAA	-2.33
UGACAGCAAUAUUACGGUAU	-2.45
GCAAAGCAAUAUUACGCGCU	-2.01
GCUCAGCAAUAUUACGAACG	-0.216
AACGAGCAAUAUUACGAUUC	0.32
CCAAAGCAAUAUUACGUGAU	-3.14
ACCAAGCAAUAUUACGGGUG	-0.597
GCACAGCAAUAUUACGGGGU	-1.35
UCUAAGCAAUAUUACGAGGC	-2.58
AUUAAGCAAUAUUACGACGG	-2.54
CGGUAGCAAUAUUACGCUGA	-0.951
UUCUAGCAAUAUUACGGAAA	-1.4
CCGAAGCAAUAUUACGGACG	0.515
UCUAAGCAAUAUUACGCUUA	-1.75
GUUCAGCAAUAUUACGGCCC	0.24
UACAAGCAAUAUUACGUAAC	-2.28
CCUCAGCAAUAUUACGUCUG	-1.79
GGUUAGCAAUAUUACGGGGU	-0.0656
ACCCAGCAAUAUUACGUAAC	-1.17
UGCGAGCAAUAUUACGAUAU	-2.61
GUACAGCAAUAUUACGCAUG	-1.03
CACUAGCAAUAUUACGGUUU	-0.979
CUUCAGCAAUAUUACGUGCG	-0.814
UUAAAGCAAUAUUACGCGGG	-1.29
UUGGAGCAAUAUUACGUGUU	-2.79
AGACAGCAAUAUUACGGACG	-0.531
UAAAAGCAAUAUUACGAUCG	0.385
UCAGAGCAAUAUUACGCGCA	-1.69
CUCUAGCAAUAUUACGGAAU	-3.25
AUCCAGCAAUAUUACGUGAA	-0.212
UAUGAGCAAUAUUACGCUAA	-2.39
CUGCAGCAAUAUUACGCAGG	-2.15
GAACAGCAAUAUUACGCUCA	0.207
CACUAGCAAUAUUACGGCGG	-0.0455
UACUAGCAAUAUUACGGGGU	-2.71
AGAUAGCAAUAUUACGGAAU	-0.731
UAGGAGCAAUAUUACGGGCG	-2.58
AAUGAGCAAUAUUACGUUCG	-0.765
AGUAAGCAAUAUUACGAUAA	-1.4
UGACAGCAAUAUUACGGCUC	-0.546
AGAAAGCAAUAUUACGGAAG	-1.71
UGCCAGCAAUAUUACGCGUG	-0.381
GGCGAGCAAUAUUACGUCCU	-1.28
CGUGAGCAAUAUUACGUUCU	-2.2
UAUAAGCAAUAUUACGGUCU	-1.05
GCCUAGCAAUAUUACGGCAA	-1.75
CAACAGCAAUAUUACGUUCA	0.193
CUAGAGCAAUAUUACGGUGA	-1.46
UUGAAGCAAUAUUACGCCGG	0.0153
ACAUAGCAAUAUUACGGACC	-1.84
UUUGAGCAAUAUUACGGCCU	0.167
GGCGAGCAAUAUUACGAGAG	-2.54
UCGAAGCAAUAUUACGUGAA	-1.13
ACAUAGCAAUAUUACGAGAA	-2.35
GAUUAGCAAUAUUACGGACU	-0.223
ACCUAGCAAUAUUACGCGAU	-0.981
UUGAAGCAAUAUUACGAUCU	-0.67
ACGAAGCAAUAUUACGUUAC	-1.17
GCGAAGCAAUAUUACGUAUG	-2.81

====

experiment: self-splicing fitness, log relative to wild type (ln ratio); higher = more splicing; Tetrahymena group I intron in knt gene, E. coli kanamycin selection, DiMSum; sequences stand for … in CUCUCU…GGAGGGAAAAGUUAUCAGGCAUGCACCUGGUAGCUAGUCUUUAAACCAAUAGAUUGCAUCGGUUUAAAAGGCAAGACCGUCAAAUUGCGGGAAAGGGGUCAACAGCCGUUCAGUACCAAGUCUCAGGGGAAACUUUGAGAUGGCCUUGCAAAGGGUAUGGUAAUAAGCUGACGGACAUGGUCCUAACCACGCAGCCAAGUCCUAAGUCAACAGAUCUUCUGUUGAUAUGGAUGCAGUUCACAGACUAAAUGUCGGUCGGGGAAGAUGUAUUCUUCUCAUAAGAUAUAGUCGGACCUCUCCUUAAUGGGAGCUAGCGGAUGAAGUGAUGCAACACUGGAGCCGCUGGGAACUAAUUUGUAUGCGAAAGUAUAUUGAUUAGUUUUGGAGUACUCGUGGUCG; settings: 30 °C
Label Y when self-splicing fitness (ln) >= -1; otherwise N.

Seq	Category Label
GAAAAGCAAUAUUACGUAAA	N
CGCAAGCAAUAUUACGUCUC	N
AUGUAGCAAUAUUACGGAUG	N
GAACAGCAAUAUUACGCUAA	N
GUGGAGCAAUAUUACGACGU	N
GUGAAGCAAUAUUACGAGUG	Y
GAGUAGCAAUAUUACGAGUG	N
CCUGAGCAAUAUUACGACAU	N
GAAAAGCAAUAUUACGCUUG	N
UCUUAGCAAUAUUACGUCCA	N
ACCUAGCAAUAUUACGUGUG	N
CGAGAGCAAUAUUACGGGGC	N
AAAUAGCAAUAUUACGACAU	Y
AAGAAGCAAUAUUACGUACA	Y
GUGGAGCAAUAUUACGAUCA	N
GUACAGCAAUAUUACGAUUA	Y
UUAAAGCAAUAUUACGAAAA	Y
ACGCAGCAAUAUUACGCAGU	N
AGAUAGCAAUAUUACGUGCC	Y
UCGCAGCAAUAUUACGCCUU	N
AUUAAGCAAUAUUACGCGUC	N
CAUCAGCAAUAUUACGCGGC	N
GCGUAGCAAUAUUACGCGCC	N
GUUGAGCAAUAUUACGUUUG	N
